Test: Selectivity index, ratio of Cytotoxicity against African green monkey Vero cells assessed as reduction in cell viability after 48 hrs by SRB assay to Antiviral activity against acyclovir-resistant Herpes simplex virus 1 29-R infected in African green monkey Vero cells assessed as inhibition of viral replication after 48 hrs by naphthol blue-black staining-based plaque reduction assay
Format: toxicity
Details: Vero cells infected with HSV-1 29-R, read-out: Ratio CC50/IC50
Endpoint label: selectivity ratio at 48 h

Given smiles | Endpoint label | Value qualifier | Value
C[C@@H](O)[C@H](O)[C@@H](O)CCN[C@H]1CC[C@@]2(C)[C@H](CC[C@@H]3[C@@H]2CC[C@]2(C)[C@@H](C4=CC(=O)OC4)CC[C@]32O)C1 | selectivity ratio at 48 h | > | 92.9
C[C@]12CC[C@H](NC(=O)CNc3ccc(Cl)cc3)C[C@H]1CC[C@@H]1[C@@H]2CC[C@]2(C)[C@@H](C3=CC(=O)OC3)CC[C@]12O | selectivity ratio at 48 h | = | 174
C[C@]12CC[C@H](n3cc(CO[C@@H]4O[C@H](CO)[C@@H](O)[C@H](O)[C@H]4O)nn3)C[C@H]1CC[C@@H]1[C@@H]2CC[C@]2(C)[C@@H](C3=CC(=O)OC3)CC[C@]12O | selectivity ratio at 48 h | > | 111
CC(=O)OC[C@H]1O[C@H](OCc2cn([C@H]3CC[C@@]4(C)[C@H](CC[C@@H]5[C@@H]4CC[C@]4(C)[C@@H](C6=CC(=O)OC6)CC[C@]54O)C3)nn2)[C@@H](OC(C)=O)[C@@H](OC(C)=O)[C@@H]1OC(C)=O | selectivity ratio at 48 h | = | 65.4
C[C@]12CC[C@H](n3cc(CO[C@H]4O[C@H](CO)[C@@H](O)[C@H](O)[C@@H]4O)nn3)C[C@H]1CC[C@@H]1[C@@H]2CC[C@]2(C)[C@@H](C3=CC(=O)OC3)CC[C@]12O | selectivity ratio at 48 h | > | 811

* * *

Test system: Human alphaherpesvirus 2
Experiment: Antiviral activity against Herpes simplex virus 2-333 infected in African green monkey Vero cells assessed as inhibition of viral replication after 48 hrs by naphthol blue-black staining-based plaque reduction assay
Type: functional, organism-based
Conditions: Human alphaherpesvirus 2, 333, Vero
Below, each of the compounds is paired with its reported IC50 value.
Endpoint label: IC50 (nM)

Given smiles | Endpoint label | Value
C[C@]12CC[C@H](NC(=O)CNCCO)C[C@H]1CC[C@@H]1[C@@H]2CC[C@]2(C)[C@@H](C3=CC(=O)OC3)CC[C@]12O | IC50 | 270
C[C@]12CC[C@H](NC(=O)CNc3ccc(Cl)cc3)C[C@H]1CC[C@@H]1[C@@H]2CC[C@]2(C)[C@@H](C3=CC(=O)OC3)CC[C@]12O | IC50 | 1400
Nc1nc2c(ncn2COCCO)c(=O)[nH]1 | IC50 | 3230
CC(=O)OC[C@H]1O[C@@H](OCc2cn([C@H]3CC[C@@]4(C)[C@H](CC[C@@H]5[C@@H]4CC[C@]4(C)[C@@H](C6=CC(=O)OC6)CC[C@]54O)C3)nn2)[C@H](OC(C)=O)[C@@H](OC(C)=O)[C@@H]1OC(C)=O | IC50 | 3800
C[C@]12CC[C@H](NC(=O)CNc3ccc(C#N)cc3)C[C@H]1CC[C@@H]1[C@@H]2CC[C@]2(C)[C@@H](C3=CC(=O)OC3)CC[C@]12O | IC50 | 1000
C[C@]12CC[C@H](n3cc(CO[C@@H]4O[C@H](CO)[C@@H](O)[C@H](O)[C@H]4O)nn3)C[C@H]1CC[C@@H]1[C@@H]2CC[C@]2(C)[C@@H](C3=CC(=O)OC3)CC[C@]12O | IC50 | 2140
